Entry source: PubChem BioAssay

- EXPERIMENT: P. aeruginosa biofilm formation inhibitors, primary screen, strain PAO1, LB-PBS medium, absorbance 600 nm (AID 1176); also: test concentration not given here
- ASSAY CONDITIONS: P. aeruginosa PAO1 growth/biofilm, A600, 12 h; higher = more signal
The source made the active and inactive calls. No rule for the calls is given here.
Reported z-score values are given for each entry in this list.

>  <COMPOUND>
O=C(NCc1ccccc1)[C@@]1(Cc2ccccc2)N=C(c2ccc(OCCCO)cc2)O[C@H]1c1ccccc1

>  <z-score>
0.494 (inactive)

$$$$
>  <COMPOUND>
COc1ccc(C#Cc2ccc3c(c2)[C@]2(C(=O)N3)[C@H](c3ccccc3OCCO)N3[C@H](c4ccccc4)[C@H](c4ccccc4)OC(=O)[C@H]3[C@@H]2C(=O)O)cc1

>  <z-score>
2.76 (inactive)

$$$$
>  <COMPOUND>
C=C(CCCC)C(=O)CC[C@H](OC(=O)c1cccnc1)c1ccccc1OCCO

>  <z-score>
-0.317 (inactive)

$$$$
>  <COMPOUND>
CN1C2C=C(CCCO)C(C3C(=O)N(C(N)=O)C(=O)C32)C1c1ccc(CN2CCCC2)cc1 (stereo not given)

>  <z-score>
0.661 (inactive)

$$$$
>  <COMPOUND>
CC(C)(C)OC(=O)CC[C@]1(C(=O)NCC(O)CO)COC(c2ccc(OCCCO)cc2)=N1 (stereo not given in full)

>  <z-score>
0.826 (inactive)

$$$$
